From: PubChem BioAssay (NCI)

tested on: K-562 leukemia; assay: NCI tumour cell line growth inhibition, 48 h
metric.name: TGI

| compound | tested.target | TGI |
| --- | --- | --- |
| N/C(CC(=O)NOC(=O)c1ccccc1)=N/OC(=O)c1ccccc1 | K-562 leukemia | 71.7 µM |

Bench note: what TGI did OCC(S)CS.[Bi] (stereo unspecified) show?
> 100 µM

Param item = "O=C1C=CC(=O)c2c(O)c(N(CCCl)CCCl)c(Cl)c(O)c21" ; retrieve measured TGI.
> 10 µM

Which value of TGI has been reported for "COc1ccc(/C=C/C(=O)c2ccc(Nc3nc(Nc4ccc(F)cc4)nc(Nc4ccc(F)cc4)n3)cc2)cc1" in the records?
> 100 µM

Need TGI of CC1=C(SCCC(=O)OC(C[Se]C2=C(C)C(=O)c3ccccc3C2=O)C(=O)NC(C)(C)C)C(=O)c2ccccc2C1=O (stereo unspecified) , thanks.
2.59 µM

Need TGI, item CC/C(C)=C1\CCC(CN(C)C)C1=O (stereo unspecified)
79.5 µM

Dear colleague, I am looking for the recorded TGI of the following compound: "O=C(NNc1nc(-c2ccccc2)cs1)Nc1ccccc1"
> 100 µM

====

system: MALME-3M melanoma; experiment: NCI tumour cell line growth inhibition, 48 h
Recorded GI50, one value per entry.

| compound | GI50 |
| --- | --- |
| Cc1c2ccccc2c(C)n2c1nc1cc(Cl)c(Cl)cc12 | > 100 µM |
| Cn1cccc1-c1cc(-c2ccccc2)nc(N)c1C#N | > 100 µM |
| CCOC(=O)N(O)c1ccc(/C=C/c2ccccc2)cc1 | 19.5 µM |
| c1ccc(-c2cc3n4c(-c5ccccc5)nn(-c5ccccc5)c4cnc-3n2)cc1 | 4.58 µM |

Item "CC(=O)/C(=C/N1CCN(C(=O)c2ccco2)C1=S)C(=O)c1ccccc1" has what recorded GI50?
9.28 µM

What value of measured GI50 is listed for "COc1ccc(/C=C/C(=O)c2ccc(Nc3nc(Nc4ccc(F)cc4)nc(Nc4ccc(F)cc4)n3)cc2)cc1" ?
8.94 µM

====

TGI: recorded values
test system: NCI-H460 lung; test: NCI tumour cell line growth inhibition, 48 h

Solved entries:
| compound | TGI |
| --- | --- |
| Cc1oc2nc(N(C)C)n3cnnc3c2c1C | > 100 µM |
| O=c1[nH]c2ccc(C(F)(F)F)cc2nc1C(F)(F)F | > 100 µM |
| CCOC(=O)CCC(NC(=O)c1ccc(Nc2nc3ccccc3nc2C(=O)OCC)s1)C(=O)OCC (stereo unspecified) | > 100 µM |
| CC/C(C)=C1\CCC(CN(C)C)C1=O (stereo unspecified) | 33.4 µM |

Can you look up TGI on NCI-H460 lung for COC(=O)C(=O)C(C#N)c1c(Cl)cccc1Cl (stereo unspecified) ?
> 100 µM

Notebook entry, NCI-H460 lung assay: TGI of "N/C(CC(=O)NOC(=O)c1ccccc1)=N/OC(=O)c1ccccc1" = ?
> 100 µM

Find the measured TGI: item C=CCO[C@H]1CC[C@@]2(C)C(CC[C@]3(C)C2CC=C2[C@@H]4[C@@H](C)C(C)CC[C@]4(C(=O)O)CCC23C)C1(C)C (stereo partly specified) , target or system NCI-H460 lung.
36.3 µM

Lab note: need TGI with NCI-H460 lung for entry "O=C(Cn1c(=O)oc2ccc(C(=O)c3cccc(Cl)c3)cc21)c1ccccc1" , please look it up.
> 100 µM

Param readout = TGI; param system = NCI-H460 lung; param query = "Cc1c(Cl)cccc1NC(=O)C(=O)c1c(O)c2ccc(O)cc2oc1=O" ; response: value
> 100 µM

Tell me reported TGI for "CC(C)(CO)CNc1cc(Cl)nc(N)n1" , tested with NCI-H460 lung.
> 100 µM

Reported TGI for NCI-H460 lung, given CC1C(c2ccccc2)NC(c2ccccc2)CC1(N)C#N (stereo unspecified) ?
> 100 µM
